# tested.target: T1, biotinylated B Lymphocyte Stimulator, soluble form (human, UniProt Q9Y275 134-285, biotinylated with NHS-biotin, molar ratio 20:1 biotin:protein)
# T1 construct: also called bio-B Lymphocyte Stimulator; free B Lymphocyte Stimulator
# measurement.description: phage scFv, receptor binding inhibition on IM9 cells
# Method: All of the unique phage scFvs from panel 2 were assessed for their ability to inhibit B Lymphocyte Stimulator binding to its cognate receptor on IM9 cells. The biotinylation of B Lymphocyte Stimulator, maintenance of IM9 cells and receptor binding inhibition assay were performed as described in Example 3.

binder | binding result
I071B03 (scFv) scFv: QVQLQQSGAEVKKPGASVKVSCKASGYTFTKYTMHWVRQAPGQGPEWMGWINGGSGDTKYSRKFQGRVTITKDTSASAAYMELSSLGSEDTALYYCARATYDPLTGYSFDGFDIWGQGTMVTVSSGGGGSGGGGSGGGGSQSVLTQPASVSGSPGQSITISCTGTSSDVGGYNYVSWYQQHPGKAPKLMIYEGSKRPSGVSNRFSGSKSGNTASLTISGLQAEDEADYYCSSYTTRSTRVFGGGTKLTVLD | binds
I078H08 (scFv) scFv: QVQLVQSAAEVKKPGASVKVSCKASGYTFTSYGISWVRQAPGQGLEWMGWISAYNGNTNYAQKLQGRVTMTTDTSTSTAYMELRSLRSDDTAVYYCARVYYDILTGYNLFFDYWGRGTTVTVSSGGGGSGGGGSGGGGSQSVLTQPASVSGSPGQSITISCTGTSSDVGGYNYVSWYQQHPGKAPKLMIYEGSKRPSGVSNRFSGSKSGNTASLTISGLQAEDEADYYCSSYTTRSTRVFGGGTKLTVLG | binds

Ref: patent US20110293610A1
